Entry source: ChEMBL document CHEMBL1156885

molecular target: Adenosine receptor A2a (Homo sapiens, UniProt P29274)
Sequence (P29274 whole entry): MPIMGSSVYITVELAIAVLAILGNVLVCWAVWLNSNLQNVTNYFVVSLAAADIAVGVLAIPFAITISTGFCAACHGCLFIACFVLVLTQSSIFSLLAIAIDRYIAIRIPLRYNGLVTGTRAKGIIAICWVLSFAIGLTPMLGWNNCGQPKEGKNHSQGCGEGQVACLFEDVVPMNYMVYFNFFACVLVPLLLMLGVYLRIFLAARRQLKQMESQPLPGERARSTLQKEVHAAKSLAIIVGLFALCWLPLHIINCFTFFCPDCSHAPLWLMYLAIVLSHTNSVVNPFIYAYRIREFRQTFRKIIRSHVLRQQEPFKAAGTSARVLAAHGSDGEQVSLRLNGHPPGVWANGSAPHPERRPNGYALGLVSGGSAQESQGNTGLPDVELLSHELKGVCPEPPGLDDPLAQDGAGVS
pKi: −log10 of the molar value.
Rule: pKi of 5 or more gives Yes; anything lower gives No.

*Q* Please check the record Cc1ccc(Nc2nc(N)nc(CSC(C)C(=O)NCc3ccccc3Cl)n2)cc1 (stereo unspecified) and state if its pKi is at or above 5.
*A* Yes

* * *

So I've got pKi readings for Adenosine receptor A2a (Homo sapiens, UniProt P29274), take a look.
Recall that pKi is obtained by taking minus log10 of the concentration measured in molar.

Below, each entry is followed by its recorded pKi result.
- COMPOUND: "COc1ccc(Nc2nc(N)nc(CSc3nnc(N)s3)n2)cc1"
  pKi: 4.85
- COMPOUND: "Nc1c(Sc2ccccc2)cc(Sc2ccccc2)c2c1C(=O)c1ccccc1C2=O"
  pKi: 5.72

*Q* Give the reported pKi for "Cc1cccc(NC2=C(N)C(=O)c3ccccc3C2=O)c1" (system: Adenosine receptor A2a (Homo sapiens, UniProt P29274)).
*A* 6.10

*Q* Give the reported pKi for "Nc1nc(CSc2nnc(N)s2)nc(Nc2ccc(F)cc2)n1" (system: Adenosine receptor A2a (Homo sapiens, UniProt P29274)).
*A* 4.89

*Q* Give the reported pKi for "CCCc1ccc2c(N)c(C(=O)c3ccccc3)sc2n1" (system: Adenosine receptor A2a (Homo sapiens, UniProt P29274)).
*A* 5.89

*Q* Give the reported pKi for "COCCOC(=O)c1sc(N)c(C#N)c1C" (system: Adenosine receptor A2a (Homo sapiens, UniProt P29274)).
*A* 4.77

*Q* Give the reported pKi for "COc1ccc(-n2ccnc2SCC(=O)c2c(N)n(C3CC3)c(=O)[nH]c2=O)cc1" (system: Adenosine receptor A2a (Homo sapiens, UniProt P29274)).
*A* 4.60

*Q* Give the reported pKi for "Nc1cccc2c1C(=O)c1ccccc1C2=O" (system: Adenosine receptor A2a (Homo sapiens, UniProt P29274)).
*A* 5.49

*Q* Give the reported pKi for Cc1ccc(Nc2nc(N)nc(CSC(C)C(=O)N3CCCCCC3)n2)cc1 (stereo not given) (system: Adenosine receptor A2a (Homo sapiens, UniProt P29274)).
*A* 4.48

*Q* Give the reported pKi for "Nc1c(C(=O)Nc2ccc([N+](=O)[O-])cc2)sc2nc3c(cc12)CCCC3" (system: Adenosine receptor A2a (Homo sapiens, UniProt P29274)).
*A* 4.82

*Q* Give the reported pKi for N#CC1=C(NC(=O)CSc2ncc(C#N)c(N)n2)SC2CCCCC12 (stereo not given) (system: Adenosine receptor A2a (Homo sapiens, UniProt P29274)).
*A* 5.21

*Q* Give the reported pKi for "N#Cc1c(N)nc2c(oc3ccccc32)c1-c1ccccc1" (system: Adenosine receptor A2a (Homo sapiens, UniProt P29274)).
*A* 7.22

*Q* Give the reported pKi for "Cc1ccc(Nc2nc(N)nc(CSCCO)n2)cc1" (system: Adenosine receptor A2a (Homo sapiens, UniProt P29274)).
*A* 4.77

*Q* Give the reported pKi for "Nc1c(C(=O)Nc2ccc(Cl)cc2)sc2ncccc12" (system: Adenosine receptor A2a (Homo sapiens, UniProt P29274)).
*A* 5.16
